Source listed as patent US20050203059A1.

List of Cells Surviving (%) With Glutamate values.
tested on: rat hippocampi cells; assay: GSK3 inhibitor protection of rat hippocampi cells from glutamate induced damage (Trypan Blue count); type: cell-based; conditions: rat hippocampal neurons, 200 μM glutamic acid for 5 minutes, counted 20 to 24 hours later; average of 1 to 4 replications
Quick note: give the figure in %, leave out the unit.

> print(dat)
                                   molecule  observed.measurement
1  Nc1nc(NCCNc2ncc(-n3ccnc3)c(-c3ccc(Cl)cc3Cl)n2)ccc1[N+](=O)[O-] [Y]                    61
2  N#Cc1ccc(NCCNc2ncc(-c3ccncc3)c(-c3ccc(Cl)cc3Cl)n2)nc1 [I]                    56

Now for a further molecule.
Exercise: Recorded Cells Surviving (%) With Glutamate of O=[N+]([O-])c1ccc(NCCNc2ncc(-c3ncc[nH]3)c(-c3ccc(Cl)cc3Cl)n2)nc1 [J] , please.
Solution: 57
